Some molecules, each annotated with its measured IC50.
target: TDO (Homo sapiens, UniProt P48775); construct: endogenous in cells; experiment: TDO Cellular Assay in Frozen SW48 Cells; conditions: 300 uM L-tryptophan, about 48 hours, fluorescence readout
Sequence (P48775 whole entry): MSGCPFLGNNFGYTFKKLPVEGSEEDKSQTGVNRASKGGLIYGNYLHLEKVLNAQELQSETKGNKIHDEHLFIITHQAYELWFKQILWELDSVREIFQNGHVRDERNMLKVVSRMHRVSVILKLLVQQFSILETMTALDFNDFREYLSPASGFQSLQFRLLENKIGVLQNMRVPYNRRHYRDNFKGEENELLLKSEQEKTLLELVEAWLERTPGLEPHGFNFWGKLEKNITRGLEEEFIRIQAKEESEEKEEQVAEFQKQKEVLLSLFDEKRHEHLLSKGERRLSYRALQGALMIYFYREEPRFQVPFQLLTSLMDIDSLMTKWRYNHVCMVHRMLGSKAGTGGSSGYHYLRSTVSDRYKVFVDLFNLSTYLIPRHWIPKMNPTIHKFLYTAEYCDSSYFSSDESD

# annotated cases, reported IC50 shown
CC1CC1NC(=O)C1(c2ccc(NC(=O)c3cccc(Cl)c3)cc2)CCC1 (single isomer, unassigned) [Example 22]: ≥ 10 µM
O=C(Nc1ccc(C2(C(=O)NCC(F)(F)F)CCC2)cc1)c1cccc(Cl)c1 [Example 49]: ≥ 10 µM
CCO[C@@H]1C[C@@H]1NC(=O)C1(c2ccc(NC(=O)c3cccc(Cl)c3)cc2)CC(F)(F)C1 [Example 64]: ≥ 10 µM
O=C(Nc1ccc(C2(C(=O)Nc3ccc(F)cc3)CC(F)(F)C2)cc1)c1cccc(Cl)c1 [Example 63]: ≥ 10 µM
O=C(Nc1ccc(C2(NC(=O)c3ccc(Cl)cn3)CCC2)cc1)c1cccc(Cl)c1 [Example 9]: ≥ 10 µM

Query molecule follows.
The molecule O=C(Nc1ccc(C2(NC(=O)c3ncco3)CCC2)cc1)c1cccc(Cl)c1 [Example 12] showed IC50 equal to 0.585 µM

----------
Biological target: IDO1 (Homo sapiens, UniProt P14902)
Sequence (P14902 whole entry): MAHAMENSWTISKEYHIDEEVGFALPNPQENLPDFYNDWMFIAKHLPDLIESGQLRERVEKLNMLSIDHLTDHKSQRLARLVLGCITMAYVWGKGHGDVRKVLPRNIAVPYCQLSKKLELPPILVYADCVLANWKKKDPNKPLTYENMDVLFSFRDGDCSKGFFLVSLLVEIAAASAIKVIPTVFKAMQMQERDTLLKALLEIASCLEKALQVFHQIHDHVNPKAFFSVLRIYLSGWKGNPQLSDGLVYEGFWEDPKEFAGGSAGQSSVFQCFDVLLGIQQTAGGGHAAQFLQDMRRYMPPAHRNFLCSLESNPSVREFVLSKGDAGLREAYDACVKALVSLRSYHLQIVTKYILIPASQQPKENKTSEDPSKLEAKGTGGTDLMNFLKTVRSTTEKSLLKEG
Experiment: IDO1 Cellular Assay in Hela Cells Stimulated with IFNγ
Format: cell-based
Set-up: endogenous in cells; host or cells: HeLa cells stimulated with IFNγ (100 ng/mL)
Details: Hela cells stimulated with IFNγ 100 ng/mL, 300 uM L-tryptophan, about 48 hours, fluorescence readout
Protocol: IDO1 Cellular Assay in Hela Cells Stimulated with IFNγ Hela cells were cultured in complete Hela culture medium (90% EMEM, 10% heat-inactivated fetal bovine serum) and expanded to about 1×10^9 cells. […] Frozen Hela cells were thawed and transferred into Hela assay medium (99% complete Hela culture medium, 1% Pen/Strep) with 20 mL medium/vial of cells. […] The cells were then counted and adjusted to a density of 2×10^5 cells/ml in Hela assay medium. […]
Note to self: class labels come from recorded IC50, ranges listed here: low interval = under 30 nM, middle interval = from 30 nM up to 100 nM, high interval = 100 nM and over

O=C(Nc1ccc(C2(NC(=O)c3ccc(Cl)nc3)CCC2)cc1)c1cccc(Cl)c1: low interval
O=C(Nc1ccc(C2(NC(=O)c3ccc(F)c(F)c3)CCC2)cc1)c1cccc(Cl)c1: low interval
CCCC(=O)NC1(c2ccc(NC(=O)c3cccc(Cl)c3)cc2)CCC1: middle interval

Query string: Note: place this compound into its band. Item: "O=C(Nc1ccc(C2(C(=O)NCCC(F)(F)F)CCC2)cc1)c1cccc(Cl)c1"
Result string: low interval

Query string: Note: place this compound into its band. Item: CC1CC1NC(=O)C1(c2ccc(NC(=O)c3cccc(Cl)c3)cc2)CCC1 (single isomer, unassigned) [Example 23]
Result string: middle interval

Query string: Note: place this compound into its band. Item: "CCO[C@@H]1C[C@@H]1NC(=O)C1(c2ccc(NC(=O)c3cccc(Cl)c3)cc2)CC(F)(F)C1"
Result string: middle interval

Query string: Note: place this compound into its band. Item: "O=C(Nc1ccc(C2(NC(=O)c3cc(Cl)ccn3)CCC2)cc1)c1cccc(Cl)c1"
Result string: high interval

Query string: Note: place this compound into its band. Item: CC1CC1NC(=O)C1(c2ccc(NC(=O)c3cccc(Cl)c3)cc2)CCC1 (single isomer, unassigned) [Example 21]
Result string: low interval

Query string: Note: place this compound into its band. Item: "O=C(Nc1ccc(C2(C(=O)NCC(F)(F)F)CCC2)cc1)c1cccc(Cl)c1"
Result string: high interval

Query string: Note: place this compound into its band. Item: "O=C(Nc1ccc(C2(NC(=O)c3cnccn3)CCC2)cc1)c1cccc(Cl)c1"
Result string: high interval

Query string: Note: place this compound into its band. Item: O=C(Nc1ccc(C2(C(=O)NC3CCCOC3)CCC2)cc1)c1cccc(Cl)c1 (stereo not drawn)
Result string: middle interval

Query string: Note: place this compound into its band. Item: O=C(Nc1ccc(C2(C(=O)NC3CC3C(F)F)CCC2)cc1)c1cccc(Cl)c1 (stereo not drawn)
Result string: low interval

Query string: Note: place this compound into its band. Item: "O=C(Nc1ccc(C2(NC(=O)c3ncco3)CCC2)cc1)c1cccc(Cl)c1"
Result string: low interval

Query string: Note: place this compound into its band. Item: "O=C(Nc1ccc(C2(C(=O)NS(=O)(=O)c3ccccc3)CCC2)cc1)c1cccc(Cl)c1"
Result string: high interval

Query string: Note: place this compound into its band. Item: "O=C(Nc1ccc(C2(NC(=O)c3ncccc3Cl)CCC2)cc1)c1cccc(Cl)c1"
Result string: high interval

Query string: Note: place this compound into its band. Item: "O=C(Nc1ccc(C2(NC(=O)c3cscn3)CCC2)cc1)c1cccc(Cl)c1"
Result string: middle interval

Query string: Note: place this compound into its band. Item: "O=C(Nc1ccc(C2(NC(=O)c3nccs3)CCC2)cc1)c1cccc(Cl)c1"
Result string: middle interval

Query string: Note: place this compound into its band. Item: "O=C(Nc1ccc(C2(C(=O)N[C@@H]3CCOC3)CCC2)cc1)c1cccc(Cl)c1"
Result string: high interval

Query string: Note: place this compound into its band. Item: "N#Cc1cccc(C(=O)Nc2ccc(C3(C(=O)Nc4ccc(F)cc4)CC(F)(F)C3)cc2)c1"
Result string: low interval

Query string: Note: place this compound into its band. Item: "O=C(Nc1ccc(C2(C(=O)Nc3ccc(F)cc3)CC(F)(F)C2)cc1)c1cc(Cl)ccn1"
Result string: low interval

Query string: Note: place this compound into its band. Item: "CCCNC(=O)C1(c2ccc(NC(=O)c3ccc(CN)cc3)cc2)CCC1"
Result string: high interval

Query string: Note: place this compound into its band. Item: "CCCNC(=O)C1(c2ccc(NC(=O)c3ccc(Cl)c(Cl)c3)cc2)CCC1"
Result string: low interval

Query string: Note: place this compound into its band. Item: "CCCNC(=O)C1(c2ccc(NC(=O)c3coc(CC)n3)cc2)CCC1"
Result string: high interval

----------
molecular target: IDO1 (Homo sapiens); assay: IDO1 Human Whole Blood Assay; type: cell-based; design: from tissue; host or cells: human whole blood from healthy donors, stimulated with LPS and IFNγ; conditions: LPS and IFNγ 100 ng/mL, overnight (18 h), kynurenine by LC/MS/MS
PROPERTY: pIC50
pIC50 here: minus log base 10 of the concentration, concentration in moles per litre.

# annotated cases, reported pIC50 shown
O=C(Nc1ccc(C2(C(=O)NC3CCCCC3)CCC2)cc1)c1cccc(Cl)c1: 6.10
O=C(Nc1ccc(C2(NC(=O)c3ccc(Cl)cc3)CCC2)cc1)c1cccc(Cl)c1: 6.47
CC1CC1NC(=O)C1(c2ccc(NC(=O)c3cccc(Cl)c3)cc2)CCC1 (single isomer, unassigned): 6.10

The molecule "O=C(Nc1ccc(C2(NC(=O)c3ccc(Cl)nc3)CCC2)cc1)c1cccc(Cl)c1" showed pIC50 equal to 6.46

The molecule "N#Cc1ccc(C(=O)NC2(c3ccc(NC(=O)c4cccc(Cl)c4)cc3)CCC2)cc1" showed pIC50 equal to 6.73

----------
target: IDO1 (Homo sapiens); test: IDO1 Cellular Assay in Hela Cells Stimulated with IFNγ; assay type: cell-based; set-up: endogenous in cells; host or cells: HeLa cells stimulated with IFNγ (100 ng/mL); settings: Hela cells stimulated with IFNγ 100 ng/mL, 300 uM L-tryptophan, about 48 hours, fluorescence readout
PROPERTY: IC50 (nM)
Provide only the numeric value, understood in nM.

# annotated cases, reported IC50 shown
O=C(Nc1cccc(Cl)c1F)c1ccc(C2(C(=O)Nc3ccc(F)cn3)CCC2)cc1: 17
CC1(C)CC(NC(=O)C2(c3ccc(NC(=O)c4cccc(Cl)c4)cc3)CCC2)CCO1 (stereo not shown): 119
CCNC(=O)C1(c2ccc(NC(=O)c3cccc(Cl)c3)cc2)CCC1: 151
O=C(Nc1ccc(C2(C(=O)N[C@@H]3C[C@H]3C(F)(F)F)CCC2)cc1)c1cccc(Cl)c1: 12
N#Cc1cccc(C(=O)Nc2ccc(C3(C(=O)Nc4ccc(Cl)nc4)CCC3)cc2)c1: 2
O=C(Nc1ccc(C2(C(=O)NCCC(F)(F)F)CCC2)cc1CO)c1cccc(Cl)c1: 128

The compound "O=C(Nc1ccc(C2(C(=O)Nc3ccc(F)cc3F)CCC2)cc1)c1cccc(Cl)c1" showed IC50 equal to 3

The compound "CCCNC(=O)C1(c2ccc(NC(=O)c3ccc(F)c(Cl)c3)cc2)CCC1" showed IC50 equal to 10

The compound "O=C(Nc1ccc(C2(NC(=O)c3ccc(Cl)c(F)c3)CCC2)cc1)c1cccc(Cl)c1" showed IC50 equal to 4

----------
biological target: UniProt:P14902; assay: IDO1 Cellular Assay in Hela Cells Stimulated with IFNγ; assay type: cell-based; parameters: endogenous in cells; host or cells: HeLa cells stimulated with IFNγ (100 ng/mL); details: Hela cells stimulated with IFNγ 100 ng/mL, 300 uM L-tryptophan, about 48 hours, fluorescence readout
PROPERTY: IC50 (nM)
Provide only the numeric value, understood in nM.

# annotated cases, reported IC50 shown
O=C(Nc1ccc(C2(C(=O)NC3CCC(F)(F)CC3)CCC2)cc1)c1cccc(Cl)c1: 15
O=C(Nc1ccc(C2(C(=O)NC3CCCCC3)CCC2)cc1)c1cccc(Cl)c1: 5

Query compound follows.
The compound "CCCNC(=O)C1(c2ccc(NC(=O)c3cn4ncccc4n3)cc2)CCC1" showed IC50 equal to 2010
